Target: NLRP3 inflammasome (Homo sapiens, UniProt Q96P20)
Construct: IL-1beta HTRF
Sequence (Q96P20 whole entry): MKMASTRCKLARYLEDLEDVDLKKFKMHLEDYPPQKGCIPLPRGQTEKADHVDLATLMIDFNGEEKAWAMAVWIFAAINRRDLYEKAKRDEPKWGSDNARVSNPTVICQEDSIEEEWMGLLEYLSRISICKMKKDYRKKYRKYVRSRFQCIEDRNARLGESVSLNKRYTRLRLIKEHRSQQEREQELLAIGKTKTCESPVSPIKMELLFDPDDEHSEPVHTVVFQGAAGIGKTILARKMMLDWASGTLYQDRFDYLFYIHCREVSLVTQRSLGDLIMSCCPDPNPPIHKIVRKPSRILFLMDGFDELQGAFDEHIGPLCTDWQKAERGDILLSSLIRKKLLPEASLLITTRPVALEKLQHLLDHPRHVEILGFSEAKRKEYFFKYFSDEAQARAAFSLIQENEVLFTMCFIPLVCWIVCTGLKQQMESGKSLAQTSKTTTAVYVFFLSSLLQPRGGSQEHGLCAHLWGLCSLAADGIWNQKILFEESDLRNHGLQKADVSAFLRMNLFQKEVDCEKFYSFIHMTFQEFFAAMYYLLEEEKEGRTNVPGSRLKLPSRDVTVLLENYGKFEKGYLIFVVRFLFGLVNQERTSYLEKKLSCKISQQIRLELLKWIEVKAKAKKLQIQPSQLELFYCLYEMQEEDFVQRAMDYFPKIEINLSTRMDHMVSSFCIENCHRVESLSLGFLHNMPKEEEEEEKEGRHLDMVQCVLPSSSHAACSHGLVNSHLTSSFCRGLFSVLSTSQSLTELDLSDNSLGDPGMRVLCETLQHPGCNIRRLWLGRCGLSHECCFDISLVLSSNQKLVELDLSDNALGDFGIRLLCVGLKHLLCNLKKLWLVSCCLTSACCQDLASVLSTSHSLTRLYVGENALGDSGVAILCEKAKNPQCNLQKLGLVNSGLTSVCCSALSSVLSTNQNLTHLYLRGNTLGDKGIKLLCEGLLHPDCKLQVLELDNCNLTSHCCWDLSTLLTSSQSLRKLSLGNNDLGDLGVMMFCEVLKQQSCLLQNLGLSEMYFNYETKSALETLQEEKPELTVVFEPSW
Assay: IL-1β TR-FRET assay (THP-1 cells differentiated to macrophages with IFN-γ, LPS primed, ATP activated; HTRF)
Details: THP-1 macrophages, 50 ng/mL LPS priming, compound 30 min, 20 mM ATP 2 hours
pIC50: −log10 of the molar value.
Result type: pIC50

| Compound | Result type | Number |
| --- | --- | --- |
| Cc1cc(C)c(-n2cc3sc(NCC4(O)CC4)nc3n2)c(O)c1 | pIC50 | 6.42 |

1: Cc1cc(O)c(-n2cc3sc(NCC(C)(C)O)nc3n2)c(C2CC2(F)F)c1 (centres unmarked)
2: Cc1cc(F)cc(O)c1-n1cc2sc(N[C@@H]3CCCN(C4CC4)C3)nc2n1
3: Cc1cc(C)c(-n2cc3sc(NC4CCN(C(=O)C5CC5)C4)nc3n2)c(O)c1 (centres unmarked)
4: Cc1cc(C)c(-n2cc3sc(N[C@H]4CN(C)CCC4F)nc3n2)c(O)c1 (stereo in doubt)
Query: Descending sort on pIC50 required. # format: label list in the order the request specifies
Result: 2, 4, 1, 3
(2: 8.44, 4: 7.34, 1: 6.89, 3: 6.40)

a: CNC(=O)N1C[C@H](Nc2nc3nn(-c4c(C)cc(C)cc4O)cc3s2)[C@@H](F)C1 (racemic)
b: Cc1cc(C)c(-n2cc3sc(NC[C@@H](C)O)nc3n2)c(O)c1
Query: Pick one: a or b . Which has the bigger pIC50 number? Choose, then provide that item's label.
Result: b

###

Target: NLRP3 inflammasome (Homo sapiens, UniProt Q96P20)
Construct: IL-1beta HTRF
Experiment: IL-1β TR-FRET assay (THP-1 cells differentiated to macrophages with IFN-γ, LPS primed, ATP activated; HTRF)
Conditions: THP-1 macrophages, 50 ng/mL LPS priming, compound 30 min, 20 mM ATP 2 hours
pIC50: −log10 of the molar value.
Result type: pIC50

I: COC(C)(C)CNc1nc2nn(-c3c(C)cc(C)cc3O)cc2s1 [Example 114]
II: COc1cc(C)c(-n2cc3sc(N[C@H]4CN(C)C[C@@H]4F)nc3n2)c(O)c1 [Example 135]
III: Cc1cc(C)c(-n2cc3sc(NC4CCN(C(=O)C(C)(C)O)C4)nc3n2)c(O)c1 (stereo not shown) [Example 102]
IV: Cc1cc(O)c(-n2cc3sc(N[C@@H]4C[C@@H](F)CN(C)C4)nc3n2)c(C2CC2(F)F)c1 (single isomer, unassigned) [Example 127]
Query: Please put the 4 compounds above in a list ordered by falling pIC50. Order the labels as requested and list them.
Result: IV, II, III, I

###

Target: NLRP3 inflammasome (Homo sapiens, UniProt Q96P20)
Construct: IL-1beta HTRF
Assay: IL-1β TR-FRET assay (THP-1 cells differentiated to macrophages with IFN-γ, LPS primed, ATP activated; HTRF)
Settings: THP-1 macrophages, 50 ng/mL LPS priming, compound 30 min, 20 mM ATP 2 hours
Result type: IC50 (nM)

I: Cc1cc(C)c(-n2cc3sc(NC45CC(O)(C4)C5)nc3n2)c(O)c1
II: Cc1cc(Cl)cc(O)c1-n1cc2sc(N[C@@H]3CCCN(C)C3)nc2n1
III: CNC(=O)N1CCC(Nc2nc3nn(-c4c(C)cc(C)cc4O)cc3s2)C1 (stereo not drawn)
IV: Cc1cc(C)c(-n2cc3sc(N[C@H]4CCOC4)nc3n2)c(O)c1
V: Cc1cc(C)c(-n2cc3sc(NC4(CF)COC4)nc3n2)c(O)c1
Query: Lab note: IC50 ranking, ascending, for the listed molecules. Use the labels to give the requested order.
Result: II, III, I, IV, V
(II: 1.6 nM, III: 300 nM, I: 430 nM, IV: 660 nM, V: 2000 nM)

A: Cc1cc(C)c(-n2cc3sc(N[C@H]4CN(C(=O)C5(O)CC5)C[C@@H]4F)nc3n2)c(O)c1 (racemic)
B: COCC(=O)N1CCC(Nc2nc3nn(-c4c(C)cc(C)cc4O)cc3s2)C1 (stereo not drawn)
Query: // which entry has the larger IC50 value, A or B ? Give the chosen item's label as your response.
Result: B
(B: 550 nM, A: 340 nM)

1: Cc1cc(C)c(-n2cc3sc(NC4CCN(C(=O)C5(F)CC5)C4)nc3n2)c(O)c1 (stereo not drawn)
2: Cc1cc(C)c(-n2cc3sc(NC4CCN(C(=O)C5(C#N)CC5)C4)nc3n2)c(O)c1 (stereo not drawn)
Query: # return whichever of 1 and 2 has the smaller IC50 Please indicate the selected item by its label.
Result: 2
(2: 250 nM, 1: 460 nM)

###

Listed here: items and their measured pIC50.
System: NF-κB pathway
Assay: TNF-α assay (THP-1 cells differentiated to macrophages with IFN-γ, NF-κB pathway activated with LPS; ELISA)
Assay type: cell-based, Human
Conditions: Homo sapiens, THP-1, THP-1 macrophages, compound 30 min, 50 ng/mL LPS 3 hours
pIC50: −log10 of the molar value.

| Compound | Tested target | Result type | Result |
| --- | --- | --- | --- |
| Cc1cc(C)c(-n2cc3sc(NC4CCC(=O)N(C)C4)nc3n2)c(O)c1 (stereo not shown) [Example 115] | NF-κB pathway | pIC50 | < 4.52 |
| Cc1cc(C)c(-n2cc3sc(NC4CC5(CC(O)C5)C4)nc3n2)c(O)c1 (stereo not shown) [Example 30] | NF-κB pathway | pIC50 | < 5.00 |
| CNC(=O)N1CCC(Nc2nc3nn(-c4c(C)cc(C)cc4O)cc3s2)C1 (stereo not shown) [Example 86] | NF-κB pathway | pIC50 | < 4.52 |
| Cc1cc(C)c(-n2cc3sc(NC4CCN(S(=O)(=O)C5CC5)C4)nc3n2)c(O)c1 (stereo not shown) [Example 101] | NF-κB pathway | pIC50 | < 4.52 |
| Cc1cc(C)c(-n2cc3sc(N[C@H]4CN(C)CC4(F)F)nc3n2)c(O)c1 [Example 160] | NF-κB pathway | pIC50 | < 4.52 |

Observed pIC50 on NF-κB pathway, entry COC(=O)N1CC[C@@H](Nc2nc3nn(-c4c(C)cc(C)cc4O)cc3s2)C1 [Example 155] , equals < 4.52

COC(=O)N1CC[C@H](Nc2nc3nn(-c4c(C)cc(C)cc4O)cc3s2)C1 [Example 156] tested on NF-κB pathway gave pIC50: < 5.00

So the reported pIC50 for Cc1cc(C)c(-n2cc3sc(NC[C@H]4CCCO4)nc3n2)c(O)c1 [Example 117] , on NF-κB pathway, turned out to be < 5.00

Short answer on NF-κB pathway for CC(=O)N1CCC(Nc2nc3nn(-c4c(C)cc(C)cc4O)cc3s2)CC1 [Example 133] , pIC50: < 4.52

###

This listing pairs compounds with measured pIC50.
Tested on: NF-κB pathway
Experiment: TNF-α assay (THP-1 cells differentiated to macrophages with IFN-γ, NF-κB pathway activated with LPS; ELISA)
Type: cell-based, Human
Settings: Homo sapiens, THP-1, THP-1 macrophages, compound 30 min, 50 ng/mL LPS 3 hours
Procedure: The biological activity of Compound (I) with respect to NLRP3 was determined using the following in vitro methods. TNF-α Assay (Reported as IC50) Monocytic THP-1 cells (ATCC: TIB-202) were maintained in accordance with the provider's instructions in RPMI media (Life Technologies, Cat #A10491-01); RPMI was supplemented with 10% heat inactivated fetal bovine serum (Hyclone Cat #SH30396.03). The cells were differentiated into macrophages by the addition of 25 ng/mL IFN-γ for 24 hours at 37 °C/5% CO2. […]
pIC50: −log10 of the molar value.

| Compound | Tested target | pIC50 |
| --- | --- | --- |
| COC(C)(C)CNc1nc2nn(-c3c(C)cc(C)cc3O)cc2s1 [Example 114] | NF-κB pathway | < 5.00 |
| Cc1cc(C)c(-n2cc3sc(N[C@@H]4C[C@@H](C(F)F)CN(C)C4)nc3n2)c(O)c1 [Example 41] | NF-κB pathway | < 5.00 |
| Cc1cc(C)c(-n2cc3sc(NC4CCN(C(=O)CC5CC5)C4)nc3n2)c(O)c1 (stereo not drawn) [Example 97] | NF-κB pathway | < 5.00 |
| Cc1cc(C)c(-n2cc3sc(N[C@H]4CN(C)C[C@@H]4F)nc3n2)c(O)c1 [Example 80] | NF-κB pathway | < 4.52 |
| CO[C@H](C)CNc1nc2nn(-c3c(C)cc(C)cc3O)cc2s1 [Example 120] | NF-κB pathway | < 4.52 |
| CCc1cc(C)cc(O)c1-n1cc2sc(N[C@@H]3C[C@@H](F)CN(C)C3)nc2n1 [Example 20] | NF-κB pathway | < 4.52 |

Moving on to another compound below.
Entry Cc1cc(C)c(-n2cc3sc(NCC4(O)COC4)nc3n2)c(O)c1 [Example 161] under NF-κB pathway had pIC50 of < 4.52

Cited source for all entries: patent US20260365671A1
